protocol.details: pKa determination in DMF/water by titration with UV-visible spectra
Assay type: physicochemical
setup.conditions: DMF/water (1/1 by volume), dye 2×10^−5 mol/l
Description: The pKa value is determined in DMF/water (1/1-mixture, by volume) as follows: The dye is dissolved in a solution of a DMF/water (1/1; volume ratio) to a final concentration of 2×10^−5 mol/l. After the resulting solution is adjusted to pH 2, using 1.0 mol/l hydrochloric acid, the solution is titrated with an aqueous 1.0 mol/l sodium hydroxide solution. Recording the change of the visible ultra-violet absorption spectrum, the inflection point is determined by regression analysis.
experimental.readout: pka
Answer as a number with no unit attached.

Looking for the measured pka of NS(=O)(=O)c1cccc(S(=O)(=O)Nc2cccc3c(O)ccc(/N=N/c4ccc([N+](=O)[O-])cc4)c23)c1 [Dye D-22] , can you help?
6.34

Looking for the measured pka of CS(=O)(=O)Nc1cccc2c(O)ccc(/N=N/c3ccc([N+](=O)[O-])cc3S(C)(=O)=O)c12 [Dye D-21] , can you help?
4.32

Looking for the measured pka of N#CC1=NN(c2ccccc2)C(=O)C1/N=N/c1cc(Cl)c(S(N)(=O)=O)cc1Cl [Dye D-18] , can you help?
2.86

Looking for the measured pka of CCOC(=O)Nc1cc(/N=N/c2ccc(S(C)(=O)=O)cc2C#N)c2c(NS(C)(=O)=O)cccc2c1O [Dye D-24] , can you help?
5.09
